- ASSAY_SYSTEM: T1, wild type full length EGFR purified from A431 cells (human, UniProt P00533 25-1210)
- T1 construct: mature; Bought; coated on ELISA wells; also called full length EGFR receptor antigen; Sigma E3641
- PROTOCOL_DESCRIPTION: competition ELISA, competitor Ab-5
- Parameters: concentration or dose not given beside the values
METRIC_NAME: % inhibition
Your answer should be a number followed by the unit of measure.

Query antibody 1208 (antibody, human IgG1, kappa, V domains shown, Chimeric IgG1 kappa; also called clone 1208) VH: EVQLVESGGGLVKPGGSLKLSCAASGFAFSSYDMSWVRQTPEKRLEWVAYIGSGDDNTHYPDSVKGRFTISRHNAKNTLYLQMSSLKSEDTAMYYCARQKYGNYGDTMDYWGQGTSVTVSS VL: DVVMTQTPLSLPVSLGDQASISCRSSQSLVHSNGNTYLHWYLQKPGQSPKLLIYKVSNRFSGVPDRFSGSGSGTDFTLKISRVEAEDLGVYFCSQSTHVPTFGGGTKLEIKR yields % inhibition of 84%
